Cited source for all entries: a collection of fitness landscapes (doi:10.1126/science.1257360)

B1: PhoQ; a variant is named by its letters at X, in order, P23837 (parent)
chain: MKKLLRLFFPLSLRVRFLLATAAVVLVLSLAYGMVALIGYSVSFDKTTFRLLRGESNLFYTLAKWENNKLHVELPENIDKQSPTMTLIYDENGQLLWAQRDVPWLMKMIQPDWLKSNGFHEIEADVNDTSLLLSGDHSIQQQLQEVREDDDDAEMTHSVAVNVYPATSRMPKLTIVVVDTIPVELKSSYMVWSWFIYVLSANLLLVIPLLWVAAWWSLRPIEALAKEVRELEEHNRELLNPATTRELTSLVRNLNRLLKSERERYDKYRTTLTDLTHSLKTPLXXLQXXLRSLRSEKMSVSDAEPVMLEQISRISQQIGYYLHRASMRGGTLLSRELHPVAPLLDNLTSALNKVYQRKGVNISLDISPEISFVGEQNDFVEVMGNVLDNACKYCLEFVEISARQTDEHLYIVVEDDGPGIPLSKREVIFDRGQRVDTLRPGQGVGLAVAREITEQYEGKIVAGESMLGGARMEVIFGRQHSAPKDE

variants of: B1; experiment: enrichment ratio after two sorts for PhoP signalling (ratio (wild type AVST 3.29)); higher = more functional; details: with PhoP (E. coli)
The full ranking holds about 140,000 sequences; the median of “enrichment ratio after two sorts for PhoP signalling” is about 0, and the highest 2% start at about 11. This excerpt belongs to a sample that is enriched for the highest values.
Reported Metric: enrichment ratio

In: Reported enrichment ratio, variant SGGQ : ____
Out: 14.9

In: Need enrichment ratio of SRIQ , thanks.
Out: ≤ 0.25

In: State the recorded enrichment ratio for this entry: SEMA
Out: 13.6

In: Reported enrichment ratio for RSTG : what is it?
Out: ≤ 0.25

In: What does the data say about its enrichment ratio? Entry: SGKA
Out: ≤ 0.25

In: May I ask what enrichment ratio has been recorded for KNVL ?
Out: ≤ 0.25

In: Fill in: enrichment ratio of SGIQ is ___
Out: 11.9

In: Which enrichment ratio is reported for this variant? HSIW
Out: ≤ 0.25

In: Can you look up the measured enrichment ratio of STMA for me?
Out: 4.9

In: Entry KYGA has what enrichment ratio?
Out: ≤ 0.25

In: Recorded enrichment ratio of HWNR , please.
Out: ≤ 0.25

In: Record request: enrichment ratio value, item SGGK
Out: ≤ 0.25

In: Entry under review: QTFW . Reported enrichment ratio?
Out: ≤ 0.25

In: GET /values?readout=enrichment ratio&item= SGHP
Out: ≤ 0.25
